All values here come from ChEMBL document CHEMBL1687851.

The compounds listed here are annotated with their MIC.
# System: Staphylococcus aureus
# assay summary: Antibacterial activity against 5 x 10^5 CFU/ml epidemic methicillin-resistant Staphylococcus aureus EMRSA-16 after 18 hrs by MTT assay
# Assay type: functional
# experimental setup: EMRSA-16, 18 h
Field: numeric (µg/mL). Do not append units.

Consider the worked cases shown below.
smiles string: C=C(C)[C@H]1C[C@H](OC(C)=O)[C@]2(C)C[C@@H]3O[C@@]3(C)CC/C=C(\C)CC[C@@H]12
observation type: MIC
reading: 32

smiles string: C/C1=C\C[C@@]2(C)CC[C@@](O)(C(C)C)[C@@H]2CC/C(C)=C/CC1
observation type: MIC
reading: 8

smiles string: C/C1=C\C[C@@]2(C)CC[C@H](C(C)(C)O)[C@@H]2CC/C(C)=C/CC1
observation type: MIC
reading: 8

smiles string: C=C(C)[C@H]1C[C@@H](O)[C@]2(C)C/C=C(\C)CC/C=C(\C)CC[C@@H]12
observation type: MIC
reading: 2

smiles string: C=C(C)[C@H]1CC[C@]2(C)C[C@@H]3O[C@@]3(C)CC/C=C(\C)CC[C@@H]12
observation type: MIC
reading: 32

smiles string: C=C(C)[C@H]1CC(=O)[C@]2(C)C/C=C(\C)CC/C=C(\C)CC[C@@H]12
observation type: MIC
reading: 16

Problem: Form field: reported MIC of `C/C1=C\CC[C@@H](C)/C=C/[C@@]2(C)CC[C@@H](C(C)(C)O)[C@@H]2CC1`
Result: 16

Problem: Form field: reported MIC of `C=C(C)[C@H]1CC[C@]2(C)C/C=C(\C)CC[C@@H]3O[C@@]3(C)CC[C@@H]12`
Result: 4

Problem: Form field: reported MIC of `C=C(C)[C@H]1CC[C@]2(C)C/C=C(\C)CC/C=C(\C)CC[C@@H]12`
Result: 16

Problem: Form field: reported MIC of `C=C(C)[C@H]1C[C@H](O)[C@]2(C)C/C=C(\C)CC/C=C(\C)CC[C@@H]12`
Result: 8

Problem: Form field: reported MIC of `CC(=O)O[C@H]1C/C(C)=C/CC[C@@H](C)/C=C/[C@@]2(C)CC[C@@H](C(C)(C)O)[C@H]12`
Result: 64

Problem: Form field: reported MIC of `CCn1cc(C(=O)O)c(=O)c2cc(F)c(N3CCNCC3)cc21`
Result: 128
